Each item that follows carries a reported IC50.
Target: GPR6 (Homo sapiens, UniProt P46095)
Construct: expressed in transfected cells; host or cells: CHO cells
Sequence (P46095 whole entry): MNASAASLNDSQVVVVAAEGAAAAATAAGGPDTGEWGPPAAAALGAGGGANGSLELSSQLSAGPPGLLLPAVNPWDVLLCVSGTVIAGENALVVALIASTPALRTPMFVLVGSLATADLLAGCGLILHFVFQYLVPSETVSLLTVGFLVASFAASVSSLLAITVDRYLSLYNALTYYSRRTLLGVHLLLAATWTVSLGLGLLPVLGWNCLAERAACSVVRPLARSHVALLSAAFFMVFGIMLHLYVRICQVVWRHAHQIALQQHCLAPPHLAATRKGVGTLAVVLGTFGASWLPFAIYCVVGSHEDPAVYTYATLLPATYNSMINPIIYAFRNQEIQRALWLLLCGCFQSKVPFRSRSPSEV
Experiment: GPR6 antagonist functional cAMP assay (LANCE Ultra cAMP TR-FRET, CHO cells stably expressing GPR6)
Assay type: cell-based
Conditions: CHO cells stably expressing GPR6, cAMP assay (Example 24)

[
  {
    "molecule": "COc1cncc(-c2nc3cnc(CO)cc3nc2N2CCN(Cc3ccc(F)cc3F)CC2)n1",
    "IC50": "1000 to 30000 nM"
  },
  {
    "molecule": "COC(=O)N1CCc2nc(N3CCC(Oc4ccc(F)cc4F)CC3)c(-c3cnn(C4CCCCO4)c3)nc2C1 (stereo not drawn)",
    "IC50": "100 to 1000 nM"
  },
  {
    "molecule": "CNCC(O)c1cc2nc(N3CCC(Oc4ccc(F)cc4F)CC3)c(-c3cnn(C)c3)nc2cn1 (stereo not drawn)",
    "IC50": "100 to 1000 nM"
  },
  {
    "molecule": "COC(=O)c1cc2nc(N3CCC(Oc4ccc(F)cc4F)CC3)c(-c3cnn(C)c3)nc2cn1",
    "IC50": "1000 to 30000 nM"
  },
  {
    "molecule": "CC(=O)N1CCc2nc(N3CCC(Oc4c(F)ccc(F)c4F)CC3)c(-c3cnn(C)c3)nc2C1",
    "IC50": "1000 to 30000 nM"
  },
  {
    "molecule": "COCC1CN(c2nc3ccncc3nc2-c2cn[nH]c2)CCN1Cc1ccc(F)cc1F (single isomer, unassigned)",
    "IC50": "1000 to 30000 nM"
  },
  {
    "molecule": "CNC(=O)CN1CCc2nc(N3CCC(Oc4ccc(F)cc4F)CC3)c(-c3cnn(C4CCCCO4)c3)nc2C1 (stereo not drawn)",
    "IC50": "1000 to 30000 nM"
  },
  {
    "molecule": "CC(C)S(=O)(=O)N1CCc2nc(N3CCC(Oc4ccc(F)cc4F)CC3)c(-c3cn[nH]c3)nc2C1",
    "IC50": "< 100 nM"
  },
  {
    "molecule": "COC(C)(C)C(=O)N1CCc2nc(N3CCC(Oc4ccc(F)cc4F)CC3)c(-c3cn[nH]c3)nc2C1",
    "IC50": "100 to 1000 nM"
  },
  {
    "molecule": "COc1cccc(-c2nc3c(nc2N2CCN(Cc4ccc(F)cc4Cl)CC2)CCN(C(C)=O)C3)n1",
    "IC50": "100 to 1000 nM"
  },
  {
    "molecule": "Nc1cc2nc(N3CCC(Oc4ccc(F)cc4F)CC3)c(-c3cnn(C4CC4)c3)nc2cn1",
    "IC50": "100 to 1000 nM"
  },
  {
    "molecule": "COc1ccc(OC2CCN(c3nc4c(nc3-c3cnn(C)c3)CN(C(C)=O)CC4)CC2)c(OC)c1",
    "IC50": "1000 to 30000 nM"
  },
  {
    "molecule": "Cn1cc(-c2nc3cnc(C(O)CC#N)cc3nc2N2CCC(Oc3ccc(F)cc3F)CC2)cn1 (stereo not drawn)",
    "IC50": "1000 to 30000 nM"
  },
  {
    "molecule": "COc1cc2nc(N3CCC(Oc4ccc(F)cc4F)CC3)c(-c3cnn(C)c3)nc2cn1",
    "IC50": "1000 to 30000 nM"
  },
  {
    "molecule": "COc1cccc(-c2nc3cnccc3nc2N2CCC(Oc3ccc(F)cc3F)CC2)n1",
    "IC50": "100 to 1000 nM"
  }
]
